SUBJECT_OF_TEST: human TRPM8 (Homo sapiens)
Construct: expressed in transfected cells; host or cells: Chinese hamster ovary (CHO) cells, T-REx tetracycline-inducible expression system (Invitrogen); co-transfected with pcDNA3.1 aequorin
Sequence (Q7Z2W7 whole entry): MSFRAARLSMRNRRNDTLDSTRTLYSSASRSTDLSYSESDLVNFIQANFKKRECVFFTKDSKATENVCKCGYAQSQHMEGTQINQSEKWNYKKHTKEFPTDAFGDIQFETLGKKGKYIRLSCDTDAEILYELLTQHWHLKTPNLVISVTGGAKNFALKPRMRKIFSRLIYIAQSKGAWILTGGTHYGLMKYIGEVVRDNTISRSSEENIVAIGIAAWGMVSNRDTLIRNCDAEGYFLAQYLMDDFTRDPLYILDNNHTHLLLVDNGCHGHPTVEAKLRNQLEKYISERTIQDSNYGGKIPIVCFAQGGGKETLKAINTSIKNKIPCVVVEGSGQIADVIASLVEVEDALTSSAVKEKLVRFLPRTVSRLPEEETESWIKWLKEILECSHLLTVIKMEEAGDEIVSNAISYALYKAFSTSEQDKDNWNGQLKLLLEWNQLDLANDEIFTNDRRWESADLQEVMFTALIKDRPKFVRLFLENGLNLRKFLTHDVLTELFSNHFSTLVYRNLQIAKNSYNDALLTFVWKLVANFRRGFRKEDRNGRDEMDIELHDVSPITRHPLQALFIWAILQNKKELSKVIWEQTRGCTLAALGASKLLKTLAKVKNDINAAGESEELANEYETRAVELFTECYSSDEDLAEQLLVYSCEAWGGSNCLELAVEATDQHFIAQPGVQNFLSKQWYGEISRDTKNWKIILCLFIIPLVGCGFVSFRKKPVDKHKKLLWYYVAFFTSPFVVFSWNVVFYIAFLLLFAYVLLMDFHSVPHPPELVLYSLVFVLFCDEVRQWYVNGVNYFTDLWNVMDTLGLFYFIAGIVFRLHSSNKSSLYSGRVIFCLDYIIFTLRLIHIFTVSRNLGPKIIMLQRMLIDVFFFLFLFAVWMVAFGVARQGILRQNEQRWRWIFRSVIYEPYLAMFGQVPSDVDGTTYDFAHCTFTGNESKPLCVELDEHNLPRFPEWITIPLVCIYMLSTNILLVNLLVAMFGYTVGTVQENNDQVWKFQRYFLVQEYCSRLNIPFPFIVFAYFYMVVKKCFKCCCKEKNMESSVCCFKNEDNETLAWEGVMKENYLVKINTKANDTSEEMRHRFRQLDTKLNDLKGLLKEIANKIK
PROCEDURE_DETAILS: Luminescence readout assay for measuring intracellular calcium (aequorin, CHO cells expressing human TRPM8; icilin, L-menthol or cold activation)
Assay type: cell-based
PROTOCOL_CONDITIONS: CHO cells expressing human TRPM8, icilin activation (1 μM), aequorin luminescence; read-out: hTRPM8 IC50
Method: Luminescence Readout Assay for Measuring Intracellular Calcium A stable Chinese hamster ovary cell line expressing human TRPM8 was generated using tetracycline inducible T-REx™ expression system from Invitrogen, Inc. (Carlsbad, Calif.). […] Twenty four hours before the assay, cells were seeded in 96-well plates and TRPM8 expression was induced with 0.5 μg/ml tetracycline. On the day of the assay, culture media was removed and cells were incubated with assay buffer […]
QUANTITY_KIND: pIC50
One number for each entry, as −log10 of the molar value.

// solved cases for pIC50 follow
O=C(N[C@]1(c2ccc(OC(F)(F)F)c(F)c2)CCOc2cccnc21)N1CCC1
6.39
O=C(N[C@]1(c2ccc(OC(F)(F)F)c(F)c2)CCOc2cccnc21)c1cscn1
7.46
O=C(N[C@]1(c2ccc(OC(F)(F)F)c(F)c2)CCOc2cccnc21)c1ccc(O)cn1
8.30
O=C(NC1(c2ccc(Cl)c(Cl)c2)CCOc2cccnc21)c1ccc2oc(=O)[nH]c2c1 (stereo not shown)
7.72
O=C(N[C@]1(c2ccc(OC(F)(F)F)cc2)CCOc2cccnc21)c1ccc(=O)[nH]c1 (single isomer, unassigned)
7.68

Below are some molecules; for each one, tell me its pIC50.
1. O=C(N[C@]1(c2ccc(C(F)(F)F)cc2)CCOc2cccnc21)c1ccccc1 (single isomer, unassigned)
2. Cc1cc(C(=O)N[C@]2(c3ccc(OC(F)(F)F)c(F)c3)CCOc3cccnc32)cc(C)c1C(=O)O

1: 7.85; 2: 6.81
